Measured melting point, listed per entry.
Counter-ions that a name gives are not always drawn.

Prompt: What does the record list as melting point for C=CC(=O)Nc1cc2c(Nc3cccc(C)c3)ncnc2cc1OCCCN1CCOCC1 [Example 22] ?
Response: 69 to 72 °C

Prompt: Similarly, C=CC(=O)Nc1ccc2c(c1)sc1c(Nc3cccc(Br)c3)ncnc12 [Example 44] ?
Response: 251 to 252.4 °C

Prompt: Similarly, C/C=C/C(=O)Nc1cc2c(Nc3cccc(Br)c3)ncnc2cn1 [Example 50] ?
Response: > 260 °C (dec.)

Prompt: Similarly, O=C(/C=C/C(F)(F)F)Nc1ccc2ncnc(Nc3cccc(Br)c3)c2c1 (as salt: hydrochloride) ?
Response: 273 to 278 °C
